Reference for the values: patent US20180214548A1

Target: T1, ICOS (human, UniProt Q9Y6W8 21-140, limits assumed)
T1 sequence (looked up): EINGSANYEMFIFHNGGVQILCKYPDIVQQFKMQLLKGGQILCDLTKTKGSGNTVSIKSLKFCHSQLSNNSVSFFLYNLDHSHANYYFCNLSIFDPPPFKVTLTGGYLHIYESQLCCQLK
Assay: ELISA, coated protein 1 ug/mL; antibody concentration not stated
readout-label: OD450 nm
Respond numerically, and do not add a unit to the figure.

Problem: Field request: OD450 nm | item: chimeric anti-PD-1 antibody 76G5B3 (antibody, V domains shown, Purified from hybridoma of Harbour H2L2 mice: human variable regions, rat constant regions) VH: QVQLVESGGGVVQPGRSLRLSCAASGFTFSDYGFHWVRQAPGKGLEWVAVIWYDGSNEYYTDSVKGRFTISRDNSKNTLYLQMNSLRAEDTAMYFCVVNPFDYWGQGTLVTVSS VL: DIQMTQSPSSLSAFVGDRVTITCRASQGINHYLAWYQQKPGKAPNLLILAASTLLSGVPSRFGGRGSGTDFTLIISSLQPEDVATYYCQKYDSAPYTFGQGTKLEIK
Solution: 0.173

Problem: # input binder: chimeric anti-PD-1 antibody 32B5C7 (antibody, V domains shown, Purified from hybridoma of Harbour H2L2 mice: human variable regions, rat constant regions) VH: EVQLLESGGGLVQPGGSLRLSCAASGFTFSSYAMSWVRQAPGKGLEWVSTISGSGGTTYYADSVKGRFTISRDNSKNTLYLQMNSLRAEDTAVYYCTLTGDPDYWGQGTLVTVSS VL: EIVLTQSPATLSLSPGERATLSCRASQSVSSYLAWYQQKPGQAPRLLIYDASKRATGIPARFSGSGSGTDFTLTISSLEPEDFAVYYCQQRNNWPLTFGGGTKVEIK ; wanted: its OD450 nm
Solution: 0.483

Problem: Param item = chimeric anti-PD-1 antibody 21G8F11 (antibody, V domains shown, Purified from hybridoma of Harbour H2L2 mice: human variable regions, rat constant regions) VH: EVQLLESGGGLAQPGGSLRLSCAASGFSFNTYLMHWVRQAPGKGLEWVSAISGGGGNTYYADSVKGRFTISRDNSKNTLYLQMNSLRAEDTAVYYCAKENRIPVAPFDYWGQGTLVTVSS VL: DIQMTQSPSTLSASVGDRVTITCRASQSISTWLAWYQQKPGKAPKLLIYKASSLESGVPSRFSGSGSGTEFTLTISSLQPDDLATYYCQQYNSFSWTFGQGTKVEIK ; retrieve measured OD450 nm.
Solution: 0.128

Problem: Name the recorded OD450 nm for chimeric anti-PD-1 antibody 223G6B5 (antibody, V domains shown, Purified from hybridoma of Harbour H2L2 mice: human variable regions, rat constant regions) VH: QVQLQESGPGLVKPSETLSLTCAVSGHSIRGSYFWGWIRQPPGRGLEWIGSIYHSGSTYTNPSLKSRATISVDTSKNQFSLKLNSVTAADTAVYYCARDLDIATTRDYWGQGTLVTVSS VL: DIQLTQSPSFLSASVGDRVTIICRASQGINNYLAWYQQKPGKAPKLLIYAASTLQSGVPSRFSGSGSGTEFTLTISSLQPEDFATYYCQQLDSYPRTFGQGTKVEIKR .
Solution: 0.14
